Reported Kd for target or system insulin receptor (INSR) 157–166 (Homo sapiens), by entry.
Where a name gives a salt, the structure may show the parent alone.
outcomeMeasure: Kd (µM)

> print(dat)
                                   molecule  boundoperator  resultnumber
1                             NCCc1c[nH]cn1              =           110
2  CSCC[C@H](NC(=O)[C@H](Cc1ccccc1)NC(=O)CNC(=O)CNC(=O)[C@@H](N)Cc1ccc(O)cc1)C(=O)O              =           100
3  CNC[C@H](O)c1ccc(O)c(O)c1 [Epinephrine HCl]              >          1000
4                    NCCc1c[nH]c2ccc(O)cc12              =           110

----------
assayMethodText: UV spectroscopy binding between compounds: binding to amphetamine
experimentalConditions: read-out: Kd @ 200 nm, binding to Amph, low affinity binding; double curve, second value
pKd: −log10 of the molar value.
outcomeMeasure: pKd

> print(dat)
   compoundstructurestring  resultnumber
1     COc1cc(CC(=O)O)ccc1O          4.05
